# tested_system: acetylcholine receptor
# measurement_protocol: SPR, peptide at 10 uM over immobilized acetylcholine receptor
Would you kindly list Binding affinity (RU) for each of these binders?
Give the value in RU but do not write RU after it.

Exam item: State the recorded Binding affinity (RU) for this entry: RLQQKR [6mer-2-112]
Marked response: 142

Exam item: State the recorded Binding affinity (RU) for this entry: RVVTKK [6mer-2-103]
Marked response: 136

Exam item: State the recorded Binding affinity (RU) for this entry: RGVYRK [6mer-2-107]
Marked response: 144

Exam item: State the recorded Binding affinity (RU) for this entry: RRIYRK [6mer-2-95]
Marked response: 142
